Substrate: NCc1c[nH]c2nc(N)[nH]c(=O)c12
Protocol Details: [3H]-preQ1 incorporation into tRNA(Tyr), scintillation counting
Format: biochemical, Zymomonas mobilis
Condition Notes: 15 µM E. coli tRNA(Tyr), 200 mM HEPES pH 7.3, 20 mM MgCl2, 37°C, labelled compound
Overview of recorded Km for various proteins
All answers are understood in µM, so give the number only.

Request: Given Z. mobilis Tgt ("wild type" Tgt = Tgt(Tyr106Phe)) (Zymomonas mobilis subsp. mobilis ZM4 = ATCC 31821; C158V/Y106F) (protein, recombinant from pET9d-ZM-Y106F in E. coli BL21(DE3)/pLysS, purified; homodimer; all variants including "wild type" carry Tyr106Phe) VEATAQETDRPRFSFSIAAREGKARTGTIEMKRGVIRTPAFMPVGTAATVKALKPETVRATGADIILGNTYHLMLRPGAERIAKLGGLHSFMGWDRPILTDSGGFQVMSLSSLTKQSEEGVTFKSHLDGSRHMLSPERSIEIQHLLGSDIVMAFDEVTPYPATPSRAASSMERSMRWAKRSRDAFDSRKEQAENAALFGIQQGSVFENLRQQSADALAEIGFDGYAVGGLAVGEGQDEMFRVLDFSVPMLPDDKPHYLMGVGKPDDIVGAVERGIDMFDCVLPTRSGRNGQAFTWDGPINIRNARFSEDLTPLDSECHCAVCQKWSRAYIHHLIRAGEILGAMLMTEHNIAFYQQLMQKIRDSISEGRFSQFAQDFRARYFARNS , respond with its Km.
Response: 16.0

Request: Fill in Km for record Z. mobilis Tgt ("wild type" Tgt = Tgt(Tyr106Phe)) (Zymomonas mobilis subsp. mobilis ZM4 = ATCC 31821; Y106F) (protein, recombinant from pET9d-ZM-Y106F in E. coli BL21(DE3)/pLysS, purified; homodimer; all variants including "wild type" carry Tyr106Phe) VEATAQETDRPRFSFSIAAREGKARTGTIEMKRGVIRTPAFMPVGTAATVKALKPETVRATGADIILGNTYHLMLRPGAERIAKLGGLHSFMGWDRPILTDSGGFQVMSLSSLTKQSEEGVTFKSHLDGSRHMLSPERSIEIQHLLGSDIVMAFDECTPYPATPSRAASSMERSMRWAKRSRDAFDSRKEQAENAALFGIQQGSVFENLRQQSADALAEIGFDGYAVGGLAVGEGQDEMFRVLDFSVPMLPDDKPHYLMGVGKPDDIVGAVERGIDMFDCVLPTRSGRNGQAFTWDGPINIRNARFSEDLTPLDSECHCAVCQKWSRAYIHHLIRAGEILGAMLMTEHNIAFYQQLMQKIRDSISEGRFSQFAQDFRARYFARNS
Response: 0.9

Others:
Request: Give the value of Km reported for the following: Z. mobilis Tgt ("wild type" Tgt = Tgt(Tyr106Phe)) (Zymomonas mobilis subsp. mobilis ZM4 = ATCC 31821; V233G/Y106F) (protein, recombinant from pET9d-ZM-Y106F in E. coli BL21(DE3)/pLysS, purified; homodimer; all variants including "wild type" carry Tyr106Phe) VEATAQETDRPRFSFSIAAREGKARTGTIEMKRGVIRTPAFMPVGTAATVKALKPETVRATGADIILGNTYHLMLRPGAERIAKLGGLHSFMGWDRPILTDSGGFQVMSLSSLTKQSEEGVTFKSHLDGSRHMLSPERSIEIQHLLGSDIVMAFDECTPYPATPSRAASSMERSMRWAKRSRDAFDSRKEQAENAALFGIQQGSVFENLRQQSADALAEIGFDGYAVGGLAGGEGQDEMFRVLDFSVPMLPDDKPHYLMGVGKPDDIVGAVERGIDMFDCVLPTRSGRNGQAFTWDGPINIRNARFSEDLTPLDSECHCAVCQKWSRAYIHHLIRAGEILGAMLMTEHNIAFYQQLMQKIRDSISEGRFSQFAQDFRARYFARNS
Response: 0.6
